# Measured On: Sodium channel protein type 8 subunit alpha (Homo sapiens)
# Sequence (Q9UQD0 whole entry, looked up, the tested form may be a part): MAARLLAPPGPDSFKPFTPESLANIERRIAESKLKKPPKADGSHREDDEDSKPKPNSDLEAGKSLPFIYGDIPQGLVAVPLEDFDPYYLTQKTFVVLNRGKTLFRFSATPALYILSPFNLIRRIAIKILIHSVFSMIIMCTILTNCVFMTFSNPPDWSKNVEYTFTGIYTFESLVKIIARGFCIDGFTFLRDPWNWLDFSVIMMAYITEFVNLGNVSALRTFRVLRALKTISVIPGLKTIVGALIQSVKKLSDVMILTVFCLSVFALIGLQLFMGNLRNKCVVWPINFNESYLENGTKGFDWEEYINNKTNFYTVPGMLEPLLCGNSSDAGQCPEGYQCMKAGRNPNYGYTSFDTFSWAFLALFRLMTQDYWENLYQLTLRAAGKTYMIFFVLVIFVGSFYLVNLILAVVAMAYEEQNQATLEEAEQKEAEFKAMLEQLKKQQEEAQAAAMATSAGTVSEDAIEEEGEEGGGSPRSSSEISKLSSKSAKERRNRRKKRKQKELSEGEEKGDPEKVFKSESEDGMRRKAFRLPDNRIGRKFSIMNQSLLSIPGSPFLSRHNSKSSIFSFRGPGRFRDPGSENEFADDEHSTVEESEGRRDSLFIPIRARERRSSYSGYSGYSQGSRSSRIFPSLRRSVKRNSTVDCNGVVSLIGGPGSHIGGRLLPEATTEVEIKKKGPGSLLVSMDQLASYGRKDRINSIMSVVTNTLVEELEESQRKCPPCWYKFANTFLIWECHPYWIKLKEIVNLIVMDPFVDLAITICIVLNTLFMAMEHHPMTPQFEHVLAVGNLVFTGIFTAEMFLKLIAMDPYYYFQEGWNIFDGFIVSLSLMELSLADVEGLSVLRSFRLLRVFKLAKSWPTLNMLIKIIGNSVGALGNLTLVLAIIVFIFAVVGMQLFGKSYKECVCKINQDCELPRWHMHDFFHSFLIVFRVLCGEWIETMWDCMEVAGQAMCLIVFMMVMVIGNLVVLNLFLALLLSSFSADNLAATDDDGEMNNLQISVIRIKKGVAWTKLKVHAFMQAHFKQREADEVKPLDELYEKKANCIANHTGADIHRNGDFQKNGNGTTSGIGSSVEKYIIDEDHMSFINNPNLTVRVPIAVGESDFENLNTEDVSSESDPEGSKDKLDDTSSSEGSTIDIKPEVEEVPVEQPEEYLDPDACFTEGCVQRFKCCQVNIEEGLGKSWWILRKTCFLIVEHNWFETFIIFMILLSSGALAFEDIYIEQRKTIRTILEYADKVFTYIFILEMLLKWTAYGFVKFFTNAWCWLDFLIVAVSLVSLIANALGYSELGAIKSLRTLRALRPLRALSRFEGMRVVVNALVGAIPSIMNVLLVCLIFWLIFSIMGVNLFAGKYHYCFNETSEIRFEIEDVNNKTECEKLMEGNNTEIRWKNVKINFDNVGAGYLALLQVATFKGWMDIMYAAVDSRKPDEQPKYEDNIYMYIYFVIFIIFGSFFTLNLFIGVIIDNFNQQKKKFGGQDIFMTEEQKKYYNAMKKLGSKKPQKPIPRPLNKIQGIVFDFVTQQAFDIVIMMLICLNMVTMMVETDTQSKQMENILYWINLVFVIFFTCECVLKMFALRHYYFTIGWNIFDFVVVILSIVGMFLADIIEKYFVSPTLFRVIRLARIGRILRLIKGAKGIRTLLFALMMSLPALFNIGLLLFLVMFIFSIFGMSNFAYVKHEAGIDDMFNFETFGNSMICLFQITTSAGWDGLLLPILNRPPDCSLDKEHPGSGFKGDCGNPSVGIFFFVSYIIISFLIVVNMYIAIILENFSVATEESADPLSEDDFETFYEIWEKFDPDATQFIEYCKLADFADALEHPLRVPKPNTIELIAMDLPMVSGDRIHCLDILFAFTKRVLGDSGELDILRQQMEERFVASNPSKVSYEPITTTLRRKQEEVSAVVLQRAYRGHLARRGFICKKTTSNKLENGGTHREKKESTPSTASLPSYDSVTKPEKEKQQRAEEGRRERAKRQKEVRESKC
# Test Summary: Binding affinity to human recombinant Nav1.6 C-terminal domain expressed in Escherichia coli BL21 assessed as assessed as induction of protein denaturation by measuring change in melting temperature at 10 uM by fluorescent dye based thermal shift assay
# Experimental Setup: filed as modulator, dose 50.0 µM
Residues, ends and D or L forms follow the SMILES beside them. *: point of attachment. Adamantane1carbonyl = O=C(C12CC3CC(CC(C3)C1)C2)*; Pyrrolidide = C1CCN(*)C1; Cbz = O=C(OCc1ccccc1)*; OcHex = C1CCC(O*)CC1; OtBu = CC(C)(C)O*; OAll = C=CCO*; X1 = C#CCO*
The label depends only on ΔTm: TRUE if it is at least -0.1 °C, FALSE if it is smaller.

These recorded examples may help you get a feel for the data.
Compound | Measured On | Class Name
CC(C)C[C@H](NC(=O)[C@@H]1CCCN1C(=O)OCc1ccccc1)C(=O)N[C@@H](CCC(=O)OC(C)(C)C)C(=O)N[C@H](C(=O)N1CCCC1)C(C)C (Cbz-PLE(OtBu)V-Pyrrolidide) | Sodium channel protein type 8 subunit alpha (Homo sapiens) | FALSE
CC(C)C[C@H](NC(=O)[C@@H]1CCCN1C(=O)C12CC3CC(CC(C3)C1)C2)C(=O)N[C@@H](CCC(=O)OC(C)(C)C)C(=O)N[C@H](C(=O)OC(C)(C)C)C(C)C (Adamantane1carbonyl-PLE(OtBu)V-OtBu) | Sodium channel protein type 8 subunit alpha (Homo sapiens) | FALSE
C=CCOC(=O)[C@@H](NC(=O)[C@H](CCC(=O)OC(C)(C)C)NC(=O)[C@H](CC(C)C)NC(=O)[C@@H]1CCCN1C(=O)C12CC3CC(CC(C3)C1)C2)C(C)C (Adamantane1carbonyl-PLE(OtBu)V-OAll) | Sodium channel protein type 8 subunit alpha (Homo sapiens) | TRUE

**Q:** Decide: is the reported value of ΔTm for COC(=O)[C@@H](NC(=O)[C@H](CCC(=O)OC(C)(C)C)NC(=O)[C@H](CC(C)C)NC(=O)[C@@H]1CCCN1C(=O)C12CC3CC(CC(C3)C1)C2)C(C)C (Adamantane1carbonyl-PLE(OtBu)V-OMe) equal to or greater than -0.1 °C?
**A:** FALSE

**Q:** Decide: is the reported value of ΔTm for CC(C)C[C@H](NC(=O)[C@@H]1CCCN1C(=O)C12CC3CC(CC(C3)C1)C2)C(=O)N[C@@H](CCC(=O)OC(C)(C)C)C(=O)N[C@H](C(=O)OC1CCCCC1)C(C)C (Adamantane1carbonyl-PLE(OtBu)V-OcHex) equal to or greater than -0.1 °C?
**A:** TRUE

**Q:** Decide: is the reported value of ΔTm for C#CCOC(=O)[C@@H](NC(=O)[C@H](CCC(=O)OC(C)(C)C)NC(=O)[C@H](CC(C)C)NC(=O)[C@@H]1CCCN1C(=O)C12CC3CC(CC(C3)C1)C2)C(C)C (Adamantane1carbonyl-PLE(OtBu)V-X1) equal to or greater than -0.1 °C?
**A:** FALSE

**Q:** Decide: is the reported value of ΔTm for C=CCOC(=O)[C@@H](NC(=O)[C@H](CCC(=O)OC(C)(C)C)NC(=O)[C@H](CC(C)C)NC(=O)[C@@H]1CCCN1C(=O)OCc1ccccc1)C(C)C (Cbz-PLE(OtBu)V-OAll) equal to or greater than -0.1 °C?
**A:** FALSE
